experiment_description: Mouse pharmacokinetics (plasma, whole blood, brain)
Format: in vivo, male CD-1 mice
condition_info: male, CD-1, mouse; plasma; intravenous, corrected doses 0.5, 1.1, 2.9, 2.0 mg/kg for 9, 12, 17, 19
readout_label: clearance (mL/min/kg)

Solved cases below.
O=[N+]([O-])c1cn2c(n1)[S+]([O-])CC(OCc1ccc(OCc3ccccc3)cc1)C2 (stereo not shown) = 16.2
O=[N+]([O-])c1cn2c(n1)OC[C@@H](NCc1ccc(OC(F)(F)F)cc1)C2 = 113

[1] O=[N+]([O-])c1cn2c(n1)[S+]([O-])CC(OCc1ccc(OC(F)(F)F)cc1)C2 (stereo not shown)
[2] O=[N+]([O-])c1cn2c(n1)S(=O)(=O)CC(OCc1ccc(OC(F)(F)F)cc1)C2 (stereo not shown)
Between these two entries, 1 and 2 , state which has the higher clearance. Lab note: record the label of whichever item you select.
2
